A collection of compounds and their measured MCH
- Organism: Rattus norvegicus
- assay-method-text: Open TG-GATES - Regimen: Daily Repeat
- Type: toxicity, organism-based, Sprague-Dawley
- Parameters: regimen Daily Repeat, gender Male, age 6 weeks
- condition-details: in vivo, po, 0 mg/kg, […], tissue Blood, route gavage, dose level Control, time 7 day
Report as: number unit

compound="CC(N)=O [ACETAMIDE]" result="19.9 pg"
compound="CC(C)Cc1ccc(C(C)C(=O)O)cc1 (stereo not drawn)" result="21.6 pg"
compound=CCN(CC)N=O result="21.3 pg"
compound=O=C(O)COc1nn(Cc2ccccc2)c2ccccc12 result="21.5 pg"
compound="CC(=O)N1CCN(c2ccc(OCC3COC(Cn4ccnc4)(c4ccc(Cl)cc4Cl)O3)cc2)CC1 (stereo not drawn)" result="21.1 pg"

Kindly note the recorded MCH for CC(CCc1ccccc1)NCC(O)c1ccc(O)c(C(N)=O)c1 (stereo not drawn) , which is 21.4 pg

Kindly note the recorded MCH for `CC[C@@H](CO)NCCN[C@@H](CC)CO` , which is 21.1 pg

Kindly note the recorded MCH for `CC(=O)Nc1ccc2c(c1)Cc1ccccc1-2` , which is 21.9 pg

* * *

- Organism: Rattus norvegicus
- assay-method-text: Open TG-GATES - Regimen: Daily Repeat
- Type: toxicity, organism-based, Sprague-Dawley
- Set-up: regimen Daily Repeat, gender Male, age 6 weeks
- condition-details: in vivo, po, 0 mg/kg, […], tissue Plasma, route gavage, dose level Control, time 7 day
measured-property: Cl (meq/L)
Your answer should be a plain number; it is taken to be in meq/L.

Worked cases, answers included:
compound="O=C(O)COc1nn(Cc2ccccc2)c2ccccc12 [BENDAZAC]" measured_property=Cl quantitative_readout=103.6
compound="CC(=O)Nc1ccc2c(c1)Cc1ccccc1-2 [2-ACETYLAMINOFLUORENE]" measured_property=Cl quantitative_readout=103.2
compound="CCN(CC)N=O [N-NITROSODIETHYLAMINE]" measured_property=Cl quantitative_readout=103.2

Kindly note the recorded Cl for CC[C@@H](CO)NCCN[C@@H](CC)CO [ETHAMBUTOL] , which is 106.8

Kindly note the recorded Cl for CC(N)=O [ACETAMIDE] , which is 103.4

Kindly note the recorded Cl for CC(=O)N1CCN(c2ccc(OCC3COC(Cn4ccnc4)(c4ccc(Cl)cc4Cl)O3)cc2)CC1 (stereo unspecified) [KETOCONAZOLE] , which is 106.4

* * *

- Species: Rattus norvegicus
- assay-method-text: Open TG-GATES - Regimen: Daily Repeat
- Assay type: toxicity, organism-based, Sprague-Dawley
- Design: regimen Daily Repeat, gender Male, age 6 weeks
- condition-details: in vivo, po, 0 mg/kg, […], tissue Blood, route gavage, dose level Control, time 14 day
measured-property: Plat

compound=CC[C@@H](CO)NCCN[C@@H](CC)CO measured_property=Plat result="103.5 x10_4/uL"
compound=CC(=O)Nc1ccc2c(c1)Cc1ccccc1-2 measured_property=Plat result="117.3 x10_4/uL"

Consider the record given below.
Kindly note the recorded Plat for CC(=O)N1CCN(c2ccc(OCC3COC(Cn4ccnc4)(c4ccc(Cl)cc4Cl)O3)cc2)CC1 (stereo not drawn) , which is 113.5 x10_4/uL

* * *

- Species on record: Rattus norvegicus
- assay-method-text: Open TG-GATES - Regimen: Daily Repeat
- Type: toxicity, organism-based, Sprague-Dawley
- Parameters: regimen Daily Repeat, gender Male, age 6 weeks
- condition-details: in vivo, po, 0 mg/kg, […], tissue Blood, route gavage, dose level Control, time 14 day
measured-property: Ret (%)
Your answer should be a plain number; it is taken to be in %.

molecule="CC(N)=O [ACETAMIDE]" measured_property=Ret quantitative_readout=5.2
molecule="CC(C)Cc1ccc(C(C)C(=O)O)cc1 (stereo not drawn) [IBUPROFEN]" measured_property=Ret quantitative_readout=4.9
molecule="CC(=O)Nc1ccc2c(c1)Cc1ccccc1-2 [2-ACETYLAMINOFLUORENE]" measured_property=Ret quantitative_readout=4
molecule="O=C(O)COc1nn(Cc2ccccc2)c2ccccc12 [BENDAZAC]" measured_property=Ret quantitative_readout=4.3
molecule="CC(=O)N1CCN(c2ccc(OCC3COC(Cn4ccnc4)(c4ccc(Cl)cc4Cl)O3)cc2)CC1 (stereo not drawn) [KETOCONAZOLE]" measured_property=Ret quantitative_readout=4.1
molecule="CC(CCc1ccccc1)NCC(O)c1ccc(O)c(C(N)=O)c1 (stereo not drawn) [LABETALOL]" measured_property=Ret quantitative_readout=4.5
molecule="CCN(CC)N=O [N-NITROSODIETHYLAMINE]" measured_property=Ret quantitative_readout=4.3

Consider the record given below.
Kindly note the recorded Ret for CC[C@@H](CO)NCCN[C@@H](CC)CO [ETHAMBUTOL] , which is 4.4
